# measurement.description: Ratio of free drug level in brain to blood in diet-induced obese C57B6 mouse model at 20 mg/kg administered through diet for 21 days measured on day 24
# Format: ADME, organism-based
# Parameters: dose 20 mg/kg
# condition.set: po
test.readout: Kp uu at 504 h
Numbers only.

Look up Kp uu at 504 h: `N#CC1(COc2nc(C3CC3)c(C(=O)N[C@H]3C4CC5CC3C[C@](O)(C5)C4)s2)CC1` 0.2

* * *

# measurement.description: physchem
# condition.set: buffer, pH 7.4
test.readout: logD
Answers are plain numbers.

I'm hoping you can list logD for every compound here, please.
1. CCc1nc([C@H]2CCCO2)c(C(=O)N[C@H]2C3CC4CC2C[C@](O)(C4)C3)s1
2. COC[C@@H](C)Oc1nc(C2CC2)c(C(=O)N[C@H]2C3CC4CC2C[C@](O)(C4)C3)s1
3. COc1nc(C)sc1C(=O)N[C@H]1C2CC3CC1C[C@](O)(C3)C2

1: 2.4; 2: 2.6; 3: 2

I'm hoping you can list logD for every compound here, please.
1. CCOc1nc(C)sc1C(=O)N[C@H]1C2CC3CC1C[C@](O)(C3)C2
2. O=C(N[C@H]1C2CC3CC1C[C@](O)(C3)C2)c1sc(OC2CCOCC2)nc1[C@H]1CCCO1
3. COc1nc(C2CC2)c(C(=O)N[C@H]2C3CC4CC2C[C@](O)(C4)C3)s1
4. Cc1nc(OC(C)C)c(C(=O)N[C@H]2C3CC4CC2C[C@](O)(C4)C3)s1

1: 2.6; 2: 2.6; 3: 2.6; 4: 3

I'm hoping you can list logD for every compound here, please.
1. Cc1nc(C2CC2)c(C(=O)N[C@H]2C3CC4CC2C[C@](O)(C4)C3)s1
2. C[C@@H]1CN(c2ncc(C(=O)NC3C4CC5CC3CC(O)(C5)C4)c([C@H]3CCCO3)n2)C[C@H](C)O1 (stereo not given in full)
3. O=C(N[C@H]1C2CC3CC1C[C@](O)(C3)C2)c1sc(O[C@@H]2CCCO2)nc1C1CC1

1.9
2.3
2.4

* * *

# measurement.description: Ratio of total drug level in brain to blood in Han Wistar rat at 30 mg/kg, po measured at 1 hr by LC-MS/MS analysis
# Type: ADME, organism-based
# Parameters: dose 30 mg/kg, route oral
# condition.set: read-out: BBR
For each entry below, report its Kp at 1 h value.
Answers are plain numbers.

Worked set:
COc1nc(C)sc1C(=O)N[C@H]1C2CC3CC1C[C@](O)(C3)C2 : 1.2
O=C(N[C@H]1C2CC3CC1C[C@](O)(C3)C2)c1sc(OC2CCOCC2)nc1C1CC1 : 1.2

In the following, a different compound is considered.
Look up Kp at 1 h: `COCCOc1nc(C2CC2)c(C(=O)N[C@H]2C3CC4CC2C[C@](O)(C4)C3)s1` 1.2
